biological target: CDK4/Cyclin D3 complex (Homo sapiens); construct: made in house; host or cells: insect cells co-infected with baculovirus vectors; experiment: CDK4/Cyclin D assay; assay type: biochemical; settings: 1.0 μM; combinatorial library compounds
Sequence (P11802 whole entry): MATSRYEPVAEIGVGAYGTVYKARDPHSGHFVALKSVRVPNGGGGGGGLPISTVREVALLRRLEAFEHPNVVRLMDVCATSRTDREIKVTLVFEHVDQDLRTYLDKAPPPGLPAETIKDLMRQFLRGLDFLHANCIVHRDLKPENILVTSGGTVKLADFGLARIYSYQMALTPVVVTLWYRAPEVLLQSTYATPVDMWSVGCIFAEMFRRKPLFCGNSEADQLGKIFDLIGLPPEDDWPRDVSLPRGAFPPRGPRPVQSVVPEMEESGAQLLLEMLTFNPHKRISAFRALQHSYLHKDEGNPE
Sequence (P30281 whole entry partner): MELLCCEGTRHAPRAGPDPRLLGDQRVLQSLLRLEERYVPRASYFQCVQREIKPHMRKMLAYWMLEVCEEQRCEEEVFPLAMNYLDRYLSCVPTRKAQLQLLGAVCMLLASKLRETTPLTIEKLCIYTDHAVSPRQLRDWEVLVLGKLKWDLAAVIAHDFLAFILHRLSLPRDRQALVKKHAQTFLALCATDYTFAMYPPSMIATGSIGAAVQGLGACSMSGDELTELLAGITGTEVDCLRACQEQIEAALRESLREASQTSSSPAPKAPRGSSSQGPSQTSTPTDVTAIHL
Readout kind: CDK4 % Inhibition at 1.0 μM (%)
Dear colleague, please return just the value in %, with no unit written.

Prompt: Look at this molecule and give its reported CDK4 % Inhibition at 1.0 μM. COc1ccc(-c2csc(-c3sc(Nc4ccc(N(C)C)cc4)nc3N)n2)cc1 [drawing 525]
Completion: 19.1

Prompt: Look at this molecule and give its reported CDK4 % Inhibition at 1.0 μM. Cc1c(-c2csc(-c3sc(Nc4ccc(S(N)(=O)=O)cc4)nc3N)n2)sc2ccc(Cl)cc12 [drawing 426]
Completion: 70.6

Prompt: Look at this molecule and give its reported CDK4 % Inhibition at 1.0 μM. COc1ccc(-c2csc(-c3sc(Nc4ccc(N(C)C)cc4)nc3N)n2)cc1 [drawing 551]
Completion: 83

Prompt: Look at this molecule and give its reported CDK4 % Inhibition at 1.0 μM. CN(C)c1ccc(Nc2nc(N)c(-c3nc(-c4ccccc4)cs3)s2)cc1 [drawing 561]
Completion: 65.1

Prompt: Look at this molecule and give its reported CDK4 % Inhibition at 1.0 μM. Cc1c(-c2csc(-c3sc(Nc4ccc(C(C)C)cc4)nc3N)n2)sc2ccc(Cl)cc12 [drawing 489]
Completion: 79.9

Prompt: Look at this molecule and give its reported CDK4 % Inhibition at 1.0 μM. CN(C)c1ccc(Nc2nc(N)c(-c3nc(-c4ccccc4)cs3)s2)cc1 [drawing 547]
Completion: −48.3

Prompt: Look at this molecule and give its reported CDK4 % Inhibition at 1.0 μM. CC(C)c1ccc(Nc2nc(N)c(-c3nc(-c4ccccc4)cs3)s2)cc1 [drawing 498]
Completion: 59.4

Prompt: Look at this molecule and give its reported CDK4 % Inhibition at 1.0 μM. CC(C)c1ccc(Nc2nc(N)c(-c3nc(-c4ccccc4)cs3)s2)cc1 [drawing 484]
Completion: −42.5

Prompt: Look at this molecule and give its reported CDK4 % Inhibition at 1.0 μM. COc1ccc(-c2csc(-c3sc(Nc4ccc(S(N)(=O)=O)cc4)nc3N)n2)cc1 [drawing 399]
Completion: 9.3

Prompt: Look at this molecule and give its reported CDK4 % Inhibition at 1.0 μM. Nc1nc(Nc2ccc(S(N)(=O)=O)cc2)sc1-c1nc(-c2ccccc2)cs1 [drawing 435]
Completion: 43.3

Prompt: Look at this molecule and give its reported CDK4 % Inhibition at 1.0 μM. Cc1c(-c2csc(-c3sc(Nc4ccc(N(C)C)cc4)nc3N)n2)sc2ccc(Cl)cc12 [drawing 552]
Completion: 65.1

Prompt: Look at this molecule and give its reported CDK4 % Inhibition at 1.0 μM. COc1ccc(-c2csc(-c3sc(Nc4ccc(C(C)C)cc4)nc3N)n2)cc1 [drawing 488]
Completion: 79

Prompt: Look at this molecule and give its reported CDK4 % Inhibition at 1.0 μM. Nc1nc(Nc2ccc(S(N)(=O)=O)cc2)sc1-c1nc(-c2ccccc2)cs1 [drawing 421]
Completion: −33.4

Prompt: Look at this molecule and give its reported CDK4 % Inhibition at 1.0 μM. COc1ccc(-c2csc(-c3sc(Nc4ccc(S(N)(=O)=O)cc4)nc3N)n2)cc1 [drawing 425]
Completion: 40.9
